Each entry gets n if its melting point stays under 80 °C, and y if its melting point is 80 °C or above.

Before answering, review these 6 worked examples.
COMPOUND: O=C1C(=Cc2ccccc2)CCCC1=Cc1ccccc1
CATEGORY_LABEL: y
--
COMPOUND: O=C(O)/C(=C\c1ccccc1)c1ccccc1
CATEGORY_LABEL: y
--
COMPOUND: NC(=O)c1ccccc1Br
CATEGORY_LABEL: y
--
COMPOUND: COc1ccsc1CN(C(=O)CCl)c1c(C)cccc1C
CATEGORY_LABEL: n
--
COMPOUND: O=C1C[C@H]2CCCC[C@H]2C1
CATEGORY_LABEL: n
--
COMPOUND: N#Cc1c(F)c(F)c(F)c(F)c1C#N
CATEGORY_LABEL: y

API: the following record is the query input.
Item CC1(C)CC(O)CC(C)(CN)C1 (configuration not stated) with melting point of 80 °C or above?
n
